System: mcp8 cell line
Assay: Growth inhibition assay (modified MTT)
Type: cell-based, human
Details: Table 2, further series of assays; A2780/mcp8; five-day MTT
Protocol: The sensitivities of the cell lines to cisplatinum, carboplatinum, and compounds A-F were determined using a growth inhibition assay which was a modified version of the MTT method (modified version of MTT method described in Appendix B). […] Compounds under investigation were dissolved in DMSO (dimethylsulphoxide). […] The plates were read using a Multiskan platereader at 540 nm and 690 nm. […]
endpoint label: pIC50
The scale used: pIC50 is minus the common logarithm of the concentration in molar units.

                                   compound  value_reported
0  c1ccc([PH]([Au][CH2]c2cc[c]([Au][PH](c3ccccc3)(c3ccccc3)c3ccccc3)cc2)(c2ccccc2)c2ccccc2)cc1 [D]            7.83
1  c1ccc([PH]([Au][c]2cc[c]([Au][PH](c3ccccc3)(c3ccccc3)c3ccccc3)cc2)(c2ccccc2)c2ccccc2)cc1 [A]            8.34
2  N.N.O=C([O-])C1(C(=O)[O-])CCC1.[Pt+2] [Carboplatin, carboplatin, reference compound]            4.57
3  c1ccc([PH]([Au][CH2]c2ccc[c]([Au][PH](c3ccccc3)(c3ccccc3)c3ccccc3)c2)(c2ccccc2)c2ccccc2)cc1 [E]            8.33
4  [Au][c]1ccc[c]([Au])c1.c1ccc(P(c2ccccc2)c2ccccc2)cc1.c1ccc(P(c2ccccc2)c2ccccc2)cc1 [B]            8.27

GET /values?readout=pIC50&item= c1ccc([PH]([Au][c]2cccc[c]2[Au][PH](c2ccccc2)(c2ccccc2)c2ccccc2)(c2ccccc2)c2ccccc2)cc1 [Compound C] 8.34

Same question for c1ccc([PH]([Au][CH2]c2cccc[c]2[Au][PH](c2ccccc2)(c2ccccc2)c2ccccc2)(c2ccccc2)c2ccccc2)cc1 [F] please. 7.94

###

The entries below come with measured IC50 values attached.
tested on: mcp1 cell line; experiment: Growth inhibition assay (modified MTT); assay type: cell-based, human; conditions: Table 2, further series of assays; A2780/mcp1; five-day MTT
Write down the numeric answer in nM and omit the unit.

>>> df
                                   compound     target_desc  value_reported
0  c1ccc([PH]([Au][CH2]c2cccc[c]2[Au][PH](c2ccccc2)(c2ccccc2)c2ccccc2)(c2ccccc2)c2ccccc2)cc1  mcp1 cell line            10.4

GET /values?readout=IC50&item= c1ccc([PH]([Au][c]2cccc[c]2[Au][PH](c2ccccc2)(c2ccccc2)c2ccccc2)(c2ccccc2)c2ccccc2)cc1 3.5

Same question for c1ccc([PH]([Au][c]2cc[c]([Au][PH](c3ccccc3)(c3ccccc3)c3ccccc3)cc2)(c2ccccc2)c2ccccc2)cc1 please. 3.5

Same question for c1ccc([PH]([Au][CH2]c2cc[c]([Au][PH](c3ccccc3)(c3ccccc3)c3ccccc3)cc2)(c2ccccc2)c2ccccc2)cc1 please. 19.5

###

test system: L1210/M1140 cell line; experiment: Growth inhibition assay (modified MTT); format: cell-based, murine; conditions: Table 2, further series of assays, five-day MTT
The entries below come with measured IC50 values attached.
Write the quantity with the unit trailing the number.

Reference set (2 entries):
In [3]: df
Out[3]:
                              sample_smiles  value_reported
0  c1ccc([PH]([Au][CH2]c2cccc[c]2[Au][PH](c2ccccc2)(c2ccccc2)c2ccccc2)(c2ccccc2)c2ccccc2)cc1         14.4 nM
1  c1ccc([PH]([Au][c]2cccc[c]2[Au][PH](c2ccccc2)(c2ccccc2)c2ccccc2)(c2ccccc2)c2ccccc2)cc1          8.4 nM

Field: IC50 (L1210/M1140 cell line). Entry: c1ccc([PH]([Au][CH2]c2ccc[c]([Au][PH](c3ccccc3)(c3ccccc3)c3ccccc3)c2)(c2ccccc2)c2ccccc2)cc1 8.5 nM

###

system: cor123/cpr cell line; assay: Growth inhibition assay (modified MTT); assay type: cell-based, human; details: Table 2, further series of assays, five-day MTT
The entries below come with measured IC50 values attached.
Write down the numeric answer in nM and omit the unit.

Reference set (5 entries):
                                   compound  value_reported
0  c1ccc([PH]([Au][c]2cccc[c]2[Au][PH](c2ccccc2)(c2ccccc2)c2ccccc2)(c2ccccc2)c2ccccc2)cc1             4.4
1  c1ccc([PH]([Au][CH2]c2cccc[c]2[Au][PH](c2ccccc2)(c2ccccc2)c2ccccc2)(c2ccccc2)c2ccccc2)cc1            14.6
2  N.N.O=C([O-])C1(C(=O)[O-])CCC1.[Pt+2] [Carboplatin, carboplatin, reference compound]           29800
3  c1ccc([PH]([Au][c]2cc[c]([Au][PH](c3ccccc3)(c3ccccc3)c3ccccc3)cc2)(c2ccccc2)c2ccccc2)cc1             4.5
4  [Au][c]1ccc[c]([Au])c1.c1ccc(P(c2ccccc2)c2ccccc2)cc1.c1ccc(P(c2ccccc2)c2ccccc2)cc1             4.3

GET /values?readout=IC50&item= c1ccc([PH]([Au][CH2]c2cc[c]([Au][PH](c3ccccc3)(c3ccccc3)c3ccccc3)cc2)(c2ccccc2)c2ccccc2)cc1 19.7

Same question for c1ccc([PH]([Au][CH2]c2ccc[c]([Au][PH](c3ccccc3)(c3ccccc3)c3ccccc3)c2)(c2ccccc2)c2ccccc2)cc1 please. 4.4

###

tested on: L1210/M1140 cell line; test: Growth inhibition assay (modified MTT); assay type: cell-based, murine; conditions: Table 2, further series of assays, five-day MTT
The entries below come with measured IC50 values attached.
Write down the numeric answer in nM and omit the unit.

Reference set (3 entries):
                                   compound  unit_of_measurement  value_reported
0  [Au][c]1ccc[c]([Au])c1.c1ccc(P(c2ccccc2)c2ccccc2)cc1.c1ccc(P(c2ccccc2)c2ccccc2)cc1                   nM             7.2
1  c1ccc([PH]([Au][c]2cc[c]([Au][PH](c3ccccc3)(c3ccccc3)c3ccccc3)cc2)(c2ccccc2)c2ccccc2)cc1                   nM             9.2
2  c1ccc([PH]([Au][CH2]c2cc[c]([Au][PH](c3ccccc3)(c3ccccc3)c3ccccc3)cc2)(c2ccccc2)c2ccccc2)cc1                   nM            20.6

# evaluate next
GET /values?readout=IC50&item= N.N.O=C([O-])C1(C(=O)[O-])CCC1.[Pt+2] [Carboplatin, carboplatin, reference compound] 47800

###

test system: A2780cis cell line; test: Growth inhibition assay (modified MTT); type: cell-based, human; settings: Table 2, further series of assays; A2780cis; five-day MTT
IC50 less than 0.6 nM is Met; IC50 greater than or equal to 0.6 nM is Not met.

Please review the following examples before continuing.
>>> print(df.to_string())
                                   compound  answer_label
0  c1ccc([PH]([Au][CH2]c2cc[c]([Au][PH](c3ccccc3)(c3ccccc3)c3ccccc3)cc2)(c2ccccc2)c2ccccc2)cc1       Not met
1  N.N.O=C([O-])C1(C(=O)[O-])CCC1.[Pt+2] [Carboplatin, carboplatin, reference compound]       Not met

Please let me know if c1ccc([PH]([Au][CH2]c2ccc[c]([Au][PH](c3ccccc3)(c3ccccc3)c3ccccc3)c2)(c2ccccc2)c2ccccc2)cc1 shows IC50 below 0.6 nM. Not met

Same question for c1ccc([PH]([Au][CH2]c2cccc[c]2[Au][PH](c2ccccc2)(c2ccccc2)c2ccccc2)(c2ccccc2)c2ccccc2)cc1 please. Not met

Same question for c1ccc([PH]([Au][c]2cc[c]([Au][PH](c3ccccc3)(c3ccccc3)c3ccccc3)cc2)(c2ccccc2)c2ccccc2)cc1 please. Met

###

test system: cor123/cpr cell line; test: Growth inhibition assay (modified MTT); assay type: cell-based, human; conditions: Table 1, first series of assays, five-day MTT
The entries below come with measured pIC50 values attached.
The scale used: pIC50 is minus the common logarithm of the concentration in molar units.

GET /values?readout=pIC50&item= c1ccc([PH]([Au][c]2cc[c]([Au][PH](c3ccccc3)(c3ccccc3)c3ccccc3)cc2)(c2ccccc2)c2ccccc2)cc1 [A] 8.82

Same question for c1ccc([PH]([Au][CH2]c2cccc[c]2[Au][PH](c2ccccc2)(c2ccccc2)c2ccccc2)(c2ccccc2)c2ccccc2)cc1 [F] please. 7.94

###

Test system: A2780-S cell line
Experiment: Growth inhibition assay (modified MTT)
Format: cell-based, human
Conditions: Table 1, first series of assays, five-day MTT
Procedure: The sensitivities of the cell lines to cisplatinum, carboplatinum, and compounds A-F were determined using a growth inhibition assay which was a modified version of the MTT method (modified version of MTT method described in Appendix B). […] Compounds under investigation were dissolved in DMSO (dimethylsulphoxide). […] The plates were read using a Multiskan platereader at 540 nm and 690 nm. […]
The entries below come with measured pIC50 values attached.
The scale used: pIC50 is minus the common logarithm of the concentration in molar units.

Reference set (2 entries):
>>> print(df.to_string())
                                   compound  endpoint_label  value_reported
0  c1ccc([PH]([Au][CH2]c2cc[c]([Au][PH](c3ccccc3)(c3ccccc3)c3ccccc3)cc2)(c2ccccc2)c2ccccc2)cc1           pIC50            7.49
1  c1ccc([PH]([Au][c]2cccc[c]2[Au][PH](c2ccccc2)(c2ccccc2)c2ccccc2)(c2ccccc2)c2ccccc2)cc1           pIC50            7.89

GET /values?readout=pIC50&item= N.N.[Cl][Pt][Cl] [Cisplatin, cisplatin, reference compound] 5.88

Same question for c1ccc([PH]([Au][CH2]c2ccc[c]([Au][PH](c3ccccc3)(c3ccccc3)c3ccccc3)c2)(c2ccccc2)c2ccccc2)cc1 please. 8.05

Same question for c1ccc([PH]([Au][c]2cc[c]([Au][PH](c3ccccc3)(c3ccccc3)c3ccccc3)cc2)(c2ccccc2)c2ccccc2)cc1 please. 7.87

Same question for c1ccc([PH]([Au][CH2]c2cccc[c]2[Au][PH](c2ccccc2)(c2ccccc2)c2ccccc2)(c2ccccc2)c2ccccc2)cc1 please. 7.69

Same question for [Au][c]1ccc[c]([Au])c1.c1ccc(P(c2ccccc2)c2ccccc2)cc1.c1ccc(P(c2ccccc2)c2ccccc2)cc1 please. 8.01
